B1: VH:VL chains; a variant is named by its letters at X, in order (parent)
chain 1: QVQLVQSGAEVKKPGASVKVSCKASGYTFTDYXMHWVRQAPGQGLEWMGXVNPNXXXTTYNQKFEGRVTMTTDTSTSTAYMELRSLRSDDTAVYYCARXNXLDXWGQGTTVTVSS
chain 2: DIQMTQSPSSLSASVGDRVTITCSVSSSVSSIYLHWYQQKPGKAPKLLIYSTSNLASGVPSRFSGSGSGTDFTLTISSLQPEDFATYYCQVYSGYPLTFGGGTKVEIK

variants of: B1; assay: yeast display scFab, FACS + sequencing; settings: with MET
Some of the results follow. The hit rate among all sequences tested is not known here.
readoutName: antigen binding call

Consider the worked cases shown below.
{"variantAnnotation": "FKGRGAWV", "antigen binding call": "binds"}
{"variantAnnotation": "VETGNDVA", "antigen binding call": "no binding"}
{"variantAnnotation": "YKARGSGA", "antigen binding call": "binds"}
{"variantAnnotation": "SAREGSSA", "antigen binding call": "no binding"}
{"variantAnnotation": "YRGEGASD", "antigen binding call": "binds"}
{"variantAnnotation": "ARGRGAWV", "antigen binding call": "no binding"}
{"variantAnnotation": "VEKEGDVY", "antigen binding call": "no binding"}
{"variantAnnotation": "YMAEGSGA", "antigen binding call": "no binding"}

Which value of antigen binding call has been reported for YKGKGSGA in the records?
binds

Which value of antigen binding call has been reported for DGKEGYWA in the records?
no binding

Which value of antigen binding call has been reported for VRGRSDWV in the records?
no binding

Which value of antigen binding call has been reported for VRRGSSVV in the records?
binds

Which value of antigen binding call has been reported for FGRRTYGD in the records?
binds
